All figures here come from BindingDB's records for doi:10.3109/14756366.2011.651465.

readout.label: Ki

Measured Ki for this entry CC(=O)C(=NNc1cccc(-n2nc(C(=O)Nc3ccc(S(N)(=O)=O)cc3)c(C(=O)c3ccccc3)c2-c2ccccc2)c1)C(C)=O on Carbonic anhydrase 1 (Homo sapiens, UniProt P00915): 160 nM

Measured Ki for this entry NS(=O)(=O)c1ccc(NC(=O)c2nn(-c3cccc(NN=C(C(=O)c4ccccc4)C(=O)c4ccccc4)c3)c(-c3ccccc3)c2C(=O)c2ccccc2)cc1 on Carbonic anhydrase 1 (Homo sapiens, UniProt P00915): 4100 nM

Measured Ki for this entry [N-]=[N+]=Nc1cccc(-n2nc(C(=O)Nc3ccc(S(N)(=O)=O)cc3)c(C(=O)c3ccccc3)c2-c2ccccc2)c1 on Carbonic anhydrase 1 (Homo sapiens, UniProt P00915): 129 nM

---

Carbonic anhydrase 2 (Homo sapiens): reported Ki for various compounds.
Note: unit µM is implicit; provide only the numeric part.

Field Ki (entry CC(=O)/C(=N\Nc1cccc(-n2nc(C(=O)Nc3ccc(S(N)(=O)=O)cc3)c(C(=O)c3ccccc3)c2-c2ccccc2)c1)C(=O)c1ccccc1 ) reads 0.166

Field Ki (entry NS(=O)(=O)c1ccc(NC(=O)c2nn(-c3cccc(NN=C(C(=O)c4ccccc4)C(=O)c4ccccc4)c3)c(-c3ccccc3)c2C(=O)c2ccccc2)cc1 ) reads 1.94

Field Ki (entry NS(=O)(=O)c1ccc(NC(=O)c2nn(-c3cccc([N+](=O)[O-])c3)c(-c3ccccc3)c2C(=O)c2ccccc2)cc1 ) reads 0.337

Field Ki (entry Nc1cccc(-n2nc(C(=O)Nc3ccc(S(N)(=O)=O)cc3)c(C(=O)c3ccccc3)c2-c2ccccc2)c1 ) reads 0.055

Field Ki (entry [N-]=[N+]=Nc1cccc(-n2nc(C(=O)Nc3ccc(S(N)(=O)=O)cc3)c(C(=O)c3ccccc3)c2-c2ccccc2)c1 ) reads 0.064
